# SYSTEM_NAME: human Cot catalytic domain (30-397 amino acids) (Homo sapiens)
# Construct: Purified recombinant human Cot catalytic domain (30-397 amino acids) was purchased from Cama Biosciences; purchased Cama Biosciences (so in the source)
# ASSAY_DETAILS: High Throughput Cot Biochemical Assay (KinEASE TR-FRET)
# CONDITION_CONTEXT: Cot KinEASE TR-FRET, 400 μM ATP; read-out: IC50 HTRF
RECORDED_METRIC: log10 of IC50 (log10 of the value in µM)
Please be aware that the numbers have been log10-transformed from IC50 in µM.

Cc1c(-c2cncn2C)cccc1[C@H](Nc1cc(C#N)c2ncc(C#N)c(NCC(C)(C)C)c2c1)c1cn(C2(C(F)F)CC2)nn1    -2.70
N#Cc1cnc2c(Cl)cc(NC(c3ccccc3)c3cn(CC(=O)O)nn3)cc2c1Nc1ccc(F)c(Cl)c1 (stereo not drawn)    -1.22
Cc1cc(C#N)ccc1[C@H](Nc1cc(C#N)c2ncc(C#N)c(NCC(C)(C)C)c2c1)c1cn(C2(C(F)F)CC2)nn1    -1.89

Lab request: please report log10 of IC50 under test system human Cot catalytic domain (30-397 amino acids) (Homo sapiens) for [2H][C@](Nc1cc(C#N)c2ncc(C#N)c(NCC(C)(C)C)c2c1)(c1ccc(F)cc1)c1cn(CCC2CN2C(C)(C)C)nn1 (stereo partly drawn)
-1.49

Lab request: please report log10 of IC50 under test system human Cot catalytic domain (30-397 amino acids) (Homo sapiens) for CC(C)(C)N1CCC(n2cc([C@@H](Nc3cc(Cl)c4ncc(C#N)c(Nc5ccc(F)c(F)c5)c4c3)c3ccc(Cl)cc3)nn2)CC1
-1.52

Checklist item: log10 of IC50 tested on human Cot catalytic domain (30-397 amino acids) (Homo sapiens), entry Cc1c(C#N)cccc1[C@H](Nc1cc(Cl)c2ncc(C#N)c(NCC(C)(C)C(F)(F)F)c2c1)c1cn(C2(C3CC3)CC2)nn1 , value?
-2.30

* * *

# SYSTEM_NAME: human Cot catalytic domain (30-397 amino acids) (Homo sapiens)
# Construct: Purified recombinant human Cot catalytic domain (30-397 amino acids) was purchased from Cama Biosciences; purchased Cama Biosciences (so in the source)
# ASSAY_DETAILS: High Throughput Cot Biochemical Assay (KinEASE TR-FRET)
# CONDITION_CONTEXT: Cot KinEASE TR-FRET (HTRF) biochemical assay, 400 μM ATP; read-out: IC50 HTRF
# Excerpt: Example 61: High Throughput Cot Biochemical Assay In this assay, Cot-catalyzes the phosphorylation of a XL665-labeled peptide substrate. Europium conjugated phospho-tyrosine specific antibody binds the resulting phosphorylated peptide. […] Purified recombinant human Cot catalytic domain (30-397 amino acids) was purchased from Cama Biosciences. […]
RECORDED_METRIC: IC50 (µM)
All answers are understood in µM, so give the number only.

Please review the entries below; each comes with its answer.
[2H][C@](Nc1cc(C#N)c2ncc(C#N)c(NCC(C)(C)C)c2c1)(c1ccc(F)cc1)c1cn(C)nn1    0.003
[2H][C@](Nc1cc(C2CC2)c2ncc(C#N)c(N[C@H](CC)c3ccccc3)c2c1)(c1ccc(F)cc1)c1cn(C2CC2)nn1    0.028

Turning now to a further compound:
Tell me the measured IC50 of CC[C@@H](Nc1c(C#N)cnc2c(Cl)cc(N[C@H](c3cn(C4CC4)nn3)c3cccc(Cl)c3Cl)cc12)c1ccccc1 , please.
0.092

* * *

# SYSTEM_NAME: human Cot catalytic domain (30-397 amino acids) (Homo sapiens)
# Construct: Purified recombinant human Cot catalytic domain (30-397 amino acids) was purchased from Cama Biosciences; purchased Cama Biosciences (so in the source)
# ASSAY_DETAILS: High Throughput Cot Biochemical Assay (KinEASE TR-FRET)
# CONDITION_CONTEXT: Cot biochemical HTRF (KinEASE TR-FRET) assay; read-out: IC50 HTRF
Measured IC50, listed per entry.
Give just the number in nM; leave the unit off.

Consider the reported IC50 for these compounds:
CC(C)n1cc([C@@H](Nc2cc(Cl)c3ncc(C#N)c(Nc4ccc(F)c(Cl)c4)c3c2)c2cccc(NS(C)(=O)=O)c2)nn1    5
C[C@@H](Nc1c(C#N)cnc2c(Cl)cc(N[C@@H](c3cccc(C(=O)N(C)C)c3)c3c[nH]nn3)cc12)c1ccccc1    13
N#Cc1cnc2c(Cl)cc(N[C@@H](c3ccccc3)c3c[nH]nn3)cc2c1Nc1cccc(Cl)c1F    41
CC(C)(C)N1CCC(n2cc([C@@H](Nc3cc(Cl)c4ncc(C#N)c(Nc5ccc(F)c(Cl)c5)c4c3)c3cccc(I)c3)nn2)CC1    7
CN(C)C(=O)c1cccc([C@H](Nc2cc(Cl)c3ncc(C#N)c(Nc4ccc(Cl)c(Cl)c4F)c3c2)c2c[nH]nn2)c1    10

We next turn to a different compound, shown below.
Any idea what its IC50 is? The compound is C[C@@H](Nc1c(C#N)cnc2c(Cl)cc(N[C@@H](c3ccccc3)c3cn(C4CCN(C(C)(C)C)CC4)nn3)cc12)c1cccc(F)c1
10

* * *

# pIC50 annotations
# SYSTEM_NAME: human Cot catalytic domain (30-397 amino acids) (Homo sapiens, UniProt P41279)
# Construct: Purified recombinant human Cot catalytic domain (30-397 amino acids) was purchased from Cama Biosciences; purchased Cama Biosciences (so in the source)
# Sequence (P41279 30-397): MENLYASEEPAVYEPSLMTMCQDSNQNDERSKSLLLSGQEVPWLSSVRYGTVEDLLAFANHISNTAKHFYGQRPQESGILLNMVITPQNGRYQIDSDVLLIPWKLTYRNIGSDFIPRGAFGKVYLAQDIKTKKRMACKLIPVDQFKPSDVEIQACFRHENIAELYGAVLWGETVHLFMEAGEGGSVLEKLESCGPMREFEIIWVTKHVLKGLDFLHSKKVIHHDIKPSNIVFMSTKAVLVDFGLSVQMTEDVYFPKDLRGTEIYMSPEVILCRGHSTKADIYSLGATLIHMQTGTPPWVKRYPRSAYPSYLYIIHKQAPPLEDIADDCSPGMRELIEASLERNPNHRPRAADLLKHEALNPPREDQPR
# ASSAY_DETAILS: High Throughput Cot Biochemical Assay (KinEASE TR-FRET)
# CONDITION_CONTEXT: Cot biochemical HTRF (KinEASE TR-FRET) assay; read-out: IC50 HTRF
# pIC50: negative log10 of molar concentration; output just the value

CN(C)C(=O)c1cccc([C@H](Nc2cc(Cl)c3ncc(C#N)c(Nc4cccc(Cl)c4F)c3c2)c2c[nH]nn2)c1    8.70
CC(C)(C)N1CCC(n2cc([C@@H](Nc3cc(Cl)c4ncc(C#N)c(NC5C6CC7CC(C6)CC5C7)c4c3)c3ccccc3)nn2)CC1 (stereo partly drawn)    7.89
CC(C)(C)N1CCC(n2cc([C@@H](Nc3cc(Cl)c4ncc(C#N)c(Nc5cccc(Cl)c5Cl)c4c3)c3ccccc3)nn2)CC1    7.62
CC(C)(C)N1CCC(n2cc([C@@H](Nc3cc(Cl)c4ncc(C#N)c(NCc5ccccc5)c4c3)c3ccc(Cl)cc3)nn2)CC1    7.02
Cn1cnc(C(Nc2cc(Cl)c3ncc(C#N)c(Nc4ccc(F)c(Cl)c4)c3c2)c2ccc(F)cc2)c1 (stereo not drawn)    7.15

Now for a further compound.
Quick one: pIC50 for CCN1CCC(n2cc([C@@H](Nc3cc(Cl)c4ncc(C#N)c(Nc5ccc(F)c(Cl)c5)c4c3)c3ccc(Cl)cc3)nn2)CC1 ?
8.10

* * *

# SYSTEM_NAME: human Cot catalytic domain (30-397 amino acids) (Homo sapiens, UniProt P41279)
# Construct: Purified recombinant human Cot catalytic domain (30-397 amino acids) was purchased from Cama Biosciences; purchased Cama Biosciences (so in the source)
# ASSAY_DETAILS: High Throughput Cot Biochemical Assay (KinEASE TR-FRET)
# CONDITION_CONTEXT: Cot KinEASE TR-FRET, 400 μM ATP; read-out: IC50 HTRF
RECORDED_METRIC: pIC50
Answer as the number alone; pIC50 is minus log10 of concentration in mol/L.

Would you mind telling me what pIC50 value was observed for CC(C)(C)CNc1c(C#N)cnc2c(Cl)cc(N[C@@H](c3ccc(F)cc3)c3cn(C4(c5cccnc5)CC4)nn3)cc12 ?
7.32

Please report the recorded pIC50 for Cc1c(-c2cncn2C)cccc1[C@H](Nc1cc(Cl)c2ncc(C#N)c(NCC(C)(C)C)c2c1)c1cn(C2(C(F)F)CC2)nn1 .
8.70

Data request, read-out pIC50, for [2H][C@](Nc1cc(C#N)c2ncc(C#N)c(NCC(C)(C)C)c2c1)(c1ccc(F)cc1)c1cn(C2(CF)CC2)nn1
8.05

* * *

# SYSTEM_NAME: human Cot catalytic domain (30-397 amino acids) (Homo sapiens, UniProt P41279)
# Construct: Purified recombinant human Cot catalytic domain (30-397 amino acids) was purchased from Cama Biosciences; purchased Cama Biosciences (so in the source)
# ASSAY_DETAILS: High Throughput Cot Biochemical Assay (KinEASE TR-FRET)
# CONDITION_CONTEXT: Cot biochemical HTRF (KinEASE TR-FRET) assay; read-out: IC50 HTRF
RECORDED_METRIC: log10(IC50) (log10 of the value in nM)
A difference of one corresponds to tenfold IC50; all values are log10 with IC50 in nM.

# example entries with known answers
CN(C)c1cccc([C@H](Nc2cc(Cl)c3ncc(C#N)c(Nc4ccc(F)c(Cl)c4)c3c2)c2cn(C3CCN(C(C)(C)C)CC3)nn2)c1    0.90
CC(C)(C)N1CCC(n2cc([C@@H](Nc3cc(Cl)c4ncc(C#N)c(Nc5ccccc5)c4c3)c3ccc(Cl)cc3)nn2)CC1    1.86
CC(C)(C)N1CCC(n2cc([C@@H](Nc3cc(Cl)c4ncc(C#N)c(Nc5ccc(F)c(F)c5F)c4c3)c3ccc(Cl)cc3)nn2)CC1    1.51

Any idea what its log10(IC50) is? The compound is CC(C)(O)c1cccc([C@H](Nc2cc(Cl)c3ncc(C#N)c(Nc4ccc(F)c(Cl)c4)c3c2)c2cn(C3CCN(C(C)(C)C)CC3)nn2)c1
0.48

Which log10(IC50) is reported for this compound? CC(C)(C)N1CCC(n2cc([C@@H](Nc3cc(Cl)c4ncc(C#N)c(NN5CCOCC5)c4c3)c3ccccc3)nn2)CC1
2.46

Which value of log10(IC50) has been reported for CC(C)(C)N1CCC(n2cc([C@@H](Nc3cc(Cl)c4ncc(C#N)c(Nc5ccc(F)c(OC(F)(F)F)c5)c4c3)c3ccccc3)nn2)CC1 in the records?
2.86
